Reported solubility values for a set of compounds
# ASSAY_METHOD_TEXT: Solubility in water at pH 7 and 25 degC by UV-vis spectrophotometry
# Assay type: physicochemical
MEASUREMENT_KIND: solubility

>>> result("CO[C@H]1/C=C/O[C@@]2(C)Oc3c(C)c(O)c4c(O)c(c(CNCCCN5CCN(CCCNCc6c7c(O)c8c(O)c(C)c9c(c8c6O)C(=O)[C@@](C)(O/C=C/[C@H](OC)[C@@H](C)[C@@H](OC(C)=O)[C@H](C)[C@H](O)[C@H](C)[C@@H](O)[C@@H](C)/C=C/C=C(/C)C(=O)N7)O9)CC5)c(O)c4c3C2=O)NC(=O)/C(C)=C\\C=C\\[C@H](C)[C@H](O)[C@@H](C)[C@@H](O)[C@@H](C)[C@H](OC(C)=O)[C@@H]1C")
"< 10 µg/mL"
>>> result("CCCc1cn(CCNCc2c3c(O)c4c(O)c(C)c5c(c4c2O)C(=O)[C@@](C)(O/C=C/[C@H](OC)[C@@H](C)[C@@H](OC(C)=O)[C@H](C)[C@H](O)[C@H](C)[C@@H](O)[C@@H](C)/C=C/C=C(/C)C(=O)N3)O5)nn1")
"< 10 µg/mL"
>>> result("CCCc1cn(CCN2Cc3c4c(O)c5c(O)c(C)c6c(c5c3O)C(=O)[C@@](C)(O/C=C/[C@H](OC)[C@@H](C)[C@@H](OC(C)=O)[C@H](C)[C@H](O)[C@H](C)[C@@H](O)[C@@H](C)/C=C/C=C(/C)C2=N4)O6)nn1")
"< 10 µg/mL"
>>> result("CO[C@H]1/C=C/O[C@@]2(C)Oc3c(C)c(O)c4c(O)c(c(CNC5CCN(Cc6ccccc6)CC5)c(O)c4c3C2=O)NC(=O)/C(C)=C\\C=C\\[C@H](C)[C@H](O)[C@@H](C)[C@@H](O)[C@@H](C)[C@H](OC(C)=O)[C@@H]1C")
"< 10 µg/mL"
>>> result("CO[C@H]1/C=C/O[C@@]2(C)Oc3c(C)c(O)c4c(O)c(c(CNCc5cn(CN6C(=O)c7ccccc7C6=O)nn5)c(O)c4c3C2=O)NC(=O)/C(C)=C\\C=C\\[C@H](C)[C@H](O)[C@@H](C)[C@@H](O)[C@@H](C)[C@H](OC(C)=O)[C@@H]1C")
"< 10 µg/mL"
>>> result("CO[C@H]1/C=C/O[C@@]2(C)Oc3c(C)c(O)c4c(O)c(c(CNCCCN5CCCC5)c(O)c4c3C2=O)NC(=O)/C(C)=C\\C=C\\[C@H](C)[C@H](O)[C@@H](C)[C@@H](O)[C@@H](C)[C@H](OC(C)=O)[C@@H]1C")
"240 µg/mL"
>>> result("CO[C@H]1/C=C\\O[C@@]2(C)Oc3c(C)c(O)c4c(O)c(c(CNC5CCN(Cc6ccccc6)CC5)c(O)c4c3C2=O)NC(=O)/C(C)=C\\C=C/[C@H](C)[C@H](O)[C@@H](C)[C@@H](O)[C@@H](C)[C@H](OC(C)=O)[C@@H]1C")
"150 µg/mL"
>>> result("CO[C@H]1/C=C/O[C@@]2(C)Oc3c(C)c(O)c4c(O)c5c(c(O)c4c3C2=O)CN(Cc2cn(CN3C(=O)c4ccccc4C3=O)nn2)C(=N5)/C(C)=C\\C=C\\[C@H](C)[C@H](O)[C@@H](C)[C@@H](O)[C@@H](C)[C@H](OC(C)=O)[C@@H]1C")
"< 10 µg/mL"

----------
# Test system: Salmonella enterica subsp. enterica serovar Abony
# ASSAY_METHOD_TEXT: Antibacterial activity against Salmonella abony NCTC 6017 after 18 hrs by serial microdilution method
# Type: functional
# MEASUREMENT_CONTEXT: NCTC 6017, 18 h
Reported MIC values for a set of compounds
MEASUREMENT_KIND: MIC

>>> result("CO[C@H]1/C=C/O[C@@]2(C)Oc3c(C)c(O)c4c(O)c(c(CNCCCn5ccnc5)c(O)c4c3C2=O)NC(=O)/C(C)=C\\C=C\\[C@H](C)[C@H](O)[C@@H](C)[C@@H](O)[C@@H](C)[C@H](OC(C)=O)[C@@H]1C")
"> 1 µg/mL"
>>> result("CCCCCc1cn(CCCNCc2c3c(O)c4c(O)c(C)c5c(c4c2O)C(=O)[C@@](C)(O/C=C/[C@H](OC)[C@@H](C)[C@@H](OC(C)=O)[C@H](C)[C@H](O)[C@H](C)[C@@H](O)[C@@H](C)/C=C/C=C(/C)C(=O)N3)O5)nn1")
"> 1 µg/mL"
>>> result("CO[C@H]1/C=C/O[C@@]2(C)Oc3c(C)c(O)c4c(O)c(c(CNCCN5CCCC5)c(O)c4c3C2=O)NC(=O)/C(C)=C\\C=C\\[C@H](C)[C@H](O)[C@@H](C)[C@@H](O)[C@@H](C)[C@H](OC(C)=O)[C@@H]1C")
"1 µg/mL"
>>> result("CO[C@H]1/C=C/O[C@@]2(C)Oc3c(C)c(O)c4c(O)c(c(CNCCCN5CCN(CCCNCc6c7c(O)c8c(O)c(C)c9c(c8c6O)C(=O)[C@@](C)(O/C=C/[C@H](OC)[C@@H](C)[C@@H](OC(C)=O)[C@H](C)[C@H](O)[C@H](C)[C@@H](O)[C@@H](C)/C=C/C=C(/C)C(=O)N7)O9)CC5)c(O)c4c3C2=O)NC(=O)/C(C)=C\\C=C\\[C@H](C)[C@H](O)[C@@H](C)[C@@H](O)[C@@H](C)[C@H](OC(C)=O)[C@@H]1C")
"> 1 µg/mL"
>>> result("CO[C@H]1/C=C/O[C@@]2(C)Oc3c(C)c(O)c4c(O)c(c(CNCc5cn(CN6C(=O)c7ccccc7C6=O)nn5)c(O)c4c3C2=O)NC(=O)/C(C)=C\\C=C\\[C@H](C)[C@H](O)[C@@H](C)[C@@H](O)[C@@H](C)[C@H](OC(C)=O)[C@@H]1C")
"> 1 µg/mL"

----------
Reported logP values for a set of compounds
# ASSAY_METHOD_TEXT: Octanol-water partition coefficient, log P of the compound
# Type: physicochemical
MEASUREMENT_KIND: logP

>>> quantitative_readout("CO[C@H]1/C=C/O[C@@]2(C)Oc3c(C)c(O)c4c(O)c(c(CNC5CCN(Cc6ccccc6)CC5)c(O)c4c3C2=O)NC(=O)/C(C)=C\\C=C\\[C@H](C)[C@H](O)[C@@H](C)[C@@H](O)[C@@H](C)[C@H](OC(C)=O)[C@@H]1C")
3.25
>>> quantitative_readout("CO[C@H]1/C=C/O[C@@]2(C)Oc3c(C)c(O)c4c(O)c(c(C=O)c(O)c4c3C2=O)NC(=O)/C(C)=C\\C=C\\[C@H](C)[C@H](O)[C@@H](C)[C@@H](O)[C@@H](C)[C@H](OC(C)=O)[C@@H]1C")
1.71
>>> quantitative_readout("CO[C@H]1/C=C/O[C@@]2(C)Oc3c(C)c(O)c4c(O)c5c(c(O)c4c3C2=O)CN(Cc2cn(CN3C(=O)c4ccccc4C3=O)nn2)C(=N5)/C(C)=C\\C=C\\[C@H](C)[C@H](O)[C@@H](C)[C@@H](O)[C@@H](C)[C@H](OC(C)=O)[C@@H]1C")
3.26
>>> quantitative_readout("CCCCCc1cn(CCCN2Cc3c4c(O)c5c(O)c(C)c6c(c5c3O)C(=O)[C@@](C)(O/C=C/[C@H](OC)[C@@H](C)[C@@H](OC(C)=O)[C@H](C)[C@H](O)[C@H](C)[C@@H](O)[C@@H](C)/C=C/C=C(/C)C2=N4)O6)nn1")
4.47
>>> quantitative_readout("CCCCCc1cn(CCCNCc2c3c(O)c4c(O)c(C)c5c(c4c2O)C(=O)[C@@](C)(O/C=C/[C@H](OC)[C@@H](C)[C@@H](OC(C)=O)[C@H](C)[C@H](O)[C@H](C)[C@@H](O)[C@@H](C)/C=C/C=C(/C)C(=O)N3)O5)nn1")
3.42
>>> quantitative_readout("CO[C@H]1/C=C/O[C@@]2(C)Oc3c(C)c(O)c4c(O)c(c(/C=N/N5CCN(C)CC5)c(O)c4c3C2=O)NC(=O)/C(C)=C\\C=C\\[C@H](C)[C@H](O)[C@@H](C)[C@@H](O)[C@@H](C)[C@H](OC(C)=O)[C@@H]1C")
1.66
>>> quantitative_readout("CO[C@H]1/C=C/O[C@@]2(C)Oc3c(C)c(O)c4c(O)c(c(CNCCN5CCCC5)c(O)c4c3C2=O)NC(=O)/C(C)=C\\C=C\\[C@H](C)[C@H](O)[C@@H](C)[C@@H](O)[C@@H](C)[C@H](OC(C)=O)[C@@H]1C")
1.55
>>> quantitative_readout("CO[C@H]1/C=C\\O[C@@]2(C)Oc3c(C)c(O)c4c(O)c(c(CNC5CCN(Cc6ccccc6)CC5)c(O)c4c3C2=O)NC(=O)/C(C)=C\\C=C/[C@H](C)[C@H](O)[C@@H](C)[C@@H](O)[C@@H](C)[C@H](OC(C)=O)[C@@H]1C")
2.05
>>> quantitative_readout("CCCc1cn(CCNCc2c3c(O)c4c(O)c(C)c5c(c4c2O)C(=O)[C@@](C)(O/C=C/[C@H](OC)[C@@H](C)[C@@H](OC(C)=O)[C@H](C)[C@H](O)[C@H](C)[C@@H](O)[C@@H](C)/C=C/C=C(/C)C(=O)N3)O5)nn1")
2.14
